Listed here are compounds together with their documented ED50.
# System: methylphenidate
# assay-text: Methylphenidate antagonism, mice i.p.
# Format: in vivo
# measurement-context: Mus musculus, ip; Table 1; mice, i.p., 2 h before methylphenidate 60 mg/kg s.c.; read-out: MePh Antag. ED50 (ip)
# Method: Methylphenidate antagonism (ED50 μmol/kg i.p.) Perspex observation cages without bottom and lid, consisting of 5 sections each measuring 12×25×30 cm. Two hours after injection of test substance, methylphenidate, 60 mg/kg, is injected s.c. After administration of methylphenidate the mice are placed in the observation cages, 2 in each cage, where they remain for exactly 1 hour. The cages are placed on corrugated paper, the corrugations facing upwards. […]
Where a name gives a salt, the structure may show the parent alone.
Note: unit µmol/kg is implicit; provide only the numeric part.

Solved cases below.
[
  {
    "compound": "CN1CCC(C2=CC(c3ccc(F)cc3)c3ccc(F)cc32)CC1 (centres unmarked) [Lu 20-028, hydrobromide]",
    "ED50 [µmol/kg]": 0.78
  },
  {
    "compound": "O=C1NCCN1CCN1CCC(C2=CC(c3ccc(F)cc3)c3ccc(F)cc32)CC1 (centres unmarked)",
    "ED50 [µmol/kg]": 10.8
  },
  {
    "compound": "Cc1ccc2c(c1)C(=C1CCN(CCO)CC1)C=C2c1ccc(F)cc1 [Lu 20-044, hydrobromide]",
    "ED50 [µmol/kg]": 5.1
  },
  {
    "compound": "OCCN1CC=C(C2=CC(c3ccc(F)cc3)c3ccc(F)cc32)CC1 (centres unmarked) [Lu 19-157, hydrobromide]",
    "ED50 [µmol/kg]": 15.8
  },
  {
    "compound": "CN1CC=C(C2=CC(c3ccc(F)cc3)c3ccc(F)cc32)CC1 (centres unmarked) [Lu 20-025, hydrobromide]",
    "ED50 [µmol/kg]": 7.6
  }
]

I would be grateful if you could share the reported ED50 for Cc1ccc2c(c1)C(C1CCN(CCO)CC1)C=C2c1ccc(F)cc1 (centres unmarked) [Lu 20-039, hydrobromide] .
93

Query (compound): CC(C)c1ccc2c(c1)C(C1=CCN(C)CC1)=CC2c1ccc(F)cc1 (centres unmarked) [Lu 20-099, hydrobromide] ; field requested: ED50
5.6

Need ED50 of CN1CCC(=C2C=C(c3ccc(F)cc3)c3ccc(F)cc32)CC1 [Lu 19-151, hydrochloride] , thanks.
32.5

Using the record for Cc1ccc2c(c1)C(C1=CCN(CCO)CC1)C=C2c1ccc(F)cc1 (centres unmarked) [Lu 20-038, hydrobromide] , report its ED50.
0.89

What measured ED50 goes with Cc1ccc2c(c1)C(C1CCN(CCN3CCNC3=O)CC1)=CC2c1ccc(F)cc1 (centres unmarked) ?
0.86

Please look up its ED50: CN1CC=C(C2=CC(c3ccc(F)cc3)c3ccc(Cl)cc32)CC1 (centres unmarked) [Lu 20-079, hydrobromide]
3

What value of ED50 has been reported for the following compound? CN1CCC(C2C=C(c3ccc(F)cc3)c3ccc(F)cc32)CC1 (centres unmarked)
12.2

For O=C1NCCN1CCN1CCC(C2C=C(c3ccc(F)cc3)c3ccccc32)CC1 (centres unmarked) , what is its reported ED50?
70.9

Look at this compound and give its reported ED50. Cc1ccc2c(c1)C(C1CCN(C)CC1)=CC2c1ccc(F)cc1 (centres unmarked) [Lu 20-048, hydrobromide]
0.53

For Cc1ccc2c(c1)C(C1=CCN(C)CC1)C=C2c1ccc(F)cc1 (centres unmarked) [Lu 20-040, hydrobromide] , what is its reported ED50?
0.7

Please look up its ED50: Cc1ccc2c(c1)C(C1=CCN(C)CC1)=CC2c1ccc(F)cc1 (centres unmarked) [Lu 20-041, hydrobromide]
0.14

Dear colleague, I am looking for the recorded ED50 of the following compound: COc1ccc2c(c1)C(C1=CCN(CCO)CC1)=CC2c1ccc(F)cc1 (centres unmarked) [Lu 20-021, hydrobromide]
11.6
